- Experiment summary: Cytotoxicity against human OVCAR3 cells
- Type: functional
- Measurement setup: OVCAR-3
# log10 GI50 listing for each entry below
Annotation: log10 of GI50, µM basis.

Some entries whose results are on file:
• COc1cc(/C=C/c2cc(OC)c3cc[nH]c3c2)cc2c1O[C@]1(C)CC[C@@H](O)C(C)(C)[C@H]1C2 = 0.08
• COc1cc(/C=C/c2cc(OC)c3c(C/C=C(\C)CCC=C(C)C)c[nH]c3c2)cc2c1O[C@]1(C)CC[C@@H](O)C(C)(C)[C@H]1C2 = 0.74
• COc1cc(/C=C/c2cc(OC)c3ccn(C)c3c2)cc2c1O[C@]1(C)CC[C@@H](O)C(C)(C)[C@H]1C2 = 0.81
• COc1cc(/C=C/c2cc(O)c3c(C/C=C(\C)CCC=C(C)C)c[nH]c3c2)cc2c1O[C@]1(C)CC[C@@H](O)C(C)(C)[C@H]1C2 = 1.53

Lab note: next molecule to report on.
Would you kindly share the measured log10 GI50 for COc1cc(/C=C/c2cc(O)c3c(c2)C[C@@H]2C(C)(C)[C@H](O)CC[C@@]2(C)O3)cc2c1ccn2C ?
1.01

* * *

- Experiment summary: Cytotoxicity against human OVCAR8 cells
- Format: functional
- Measurement setup: OVCAR-8, read-out: pTGI (converted)
Recorded metric: TGI (µM)
Numeric answer only, unit µM assumed.

// below: answered compounds
• COc1cc(/C=C/c2cc(O)c3c(CC=C(C)C)c[nH]c3c2)cc2c1O[C@]1(C)CC[C@@H](O)C(C)(C)[C@H]1C2 = 50.1
• COc1cc(/C=C/c2cc(OC)c3c(CC=C(C)C)c[nH]c3c2)cc2c1O[C@]1(C)CC[C@@H](O)C(C)(C)[C@H]1C2 = 23.4
• COc1cc(/C=C/c2cc(O)c3c(c2)C[C@@H]2C(C)(C)[C@H](O)CC[C@@]2(C)O3)cc2[nH]cc(CC=C(C)C)c12 = 47.9

Now, please, on to the next compound.
// TGI lookup, key: COc1cc(/C=C/c2cc(OC)c3c(C/C=C(\C)CCC=C(C)C)c[nH]c3c2)cc2c1O[C@]1(C)CC[C@@H](O)C(C)(C)[C@H]1C2
36.3

* * *

- Tested on: NCI-H522
- Experiment summary: Cytotoxicity against human NCI-H522 cells
- Assay type: functional
- Measurement setup: read-out: pTGI (converted)
Label F if TGI falls below 4 µM; label T in every other case.

Known results for compounds:
• CC1(C)[C@H](O)CC[C@@]2(C)Oc3c(O)cc(/C=C/c4cc(O)c5cc[nH]c5c4)cc3C[C@H]12 = T
• COc1cc(/C=C/c2cc(O)c3ccn(C)c3c2)cc2c1O[C@]1(C)CC[C@@H](O)C(C)(C)[C@H]1C2 = T
• COc1cc(/C=C/c2cc(O)c3c(C/C=C(\C)CCC=C(C)C)c[nH]c3c2)cc2c1O[C@]1(C)CC[C@@H](O)C(C)(C)[C@H]1C2 = T

Is TGI for COc1cc(/C=C/c2cc(OC)c3c(CC=C(C)C)c[nH]c3c2)cc2c1O[C@]1(C)CC[C@@H](O)C(C)(C)[C@H]1C2 at or above 4 µM?
F

Is TGI for COc1cc(/C=C/c2cc(O)c3cc[nH]c3c2)cc2c1O[C@]1(C)CC[C@@H](O)C(C)(C)[C@H]1C2 at or above 4 µM?
T

Please check the record COc1cc(/C=C/c2cc(OC)c3cc[nH]c3c2)cc2c1O[C@]1(C)CC[C@@H](O)C(C)(C)[C@H]1C2 and state if its TGI is at or above 4 µM.
F

Textbook exercise: given the entry COc1cc(/C=C/c2cc(OC)c3c(C/C=C(\C)CCC=C(C)C)c[nH]c3c2)cc2c1O[C@]1(C)CC[C@@H](O)C(C)(C)[C@H]1C2 , state whether its TGI is greater than or equal to 4 µM.
F

* * *

- Test system: SR
- Experiment summary: Cytotoxicity against human SR cells
- Format: functional
- Measurement setup: read-out: pTGI (converted)
Response field label: string, one of True (TGI strictly below 10 µM) or False.

Sample answers from the record:
• COc1cc(/C=C/c2cc(O)c3c(C/C=C(\C)CCC=C(C)C)c[nH]c3c2)cc2c1O[C@]1(C)CC[C@@H](O)C(C)(C)[C@H]1C2 = False
• COc1cc(/C=C/c2cc(O)c3c(c2)C[C@@H]2C(C)(C)[C@H](O)CC[C@@]2(C)O3)cc2c1ccn2C = False
• COc1cc(/C=C/c2cc(O)c3cc[nH]c3c2)cc2c1O[C@]1(C)CC[C@@H](O)C(C)(C)[C@H]1C2 = True
• COc1cc(/C=C/c2cc(OC)c3cc[nH]c3c2)cc2c1O[C@]1(C)CC[C@@H](O)C(C)(C)[C@H]1C2 = True
• COc1cc(/C=C/c2cc(OC)c3c(C/C=C(\C)CCC=C(C)C)c[nH]c3c2)cc2c1O[C@]1(C)CC[C@@H](O)C(C)(C)[C@H]1C2 = True

Is it true that TGI reported for COc1cc(/C=C/c2cc(O)c3c(c2)C[C@@H]2C(C)(C)[C@H](O)CC[C@@]2(C)O3)cc2[nH]cc(CC=C(C)C)c12 is less than 10 µM?
False

* * *

Recorded GI50 for the following compounds
- Test system: KM12
- Experiment summary: Cytotoxicity against human KM12 cells
- Format: functional
Report the value in nM with no unit label.

Here is how some compounds turned out for GI50.
* COc1cc(/C=C/c2cc(O)c3cc(CC=C(C)C)[nH]c3c2)cc2c1O[C@]1(C)CC[C@@H](O)C(C)(C)[C@H]1C2 | 2040
* COc1cc(/C=C/c2cc(OC)c3c(CC=C(C)C)c[nH]c3c2)cc2c1O[C@]1(C)CC[C@@H](O)C(C)(C)[C@H]1C2 | 355
* COc1cc(/C=C/c2cc(O)c3ccn(C)c3c2)cc2c1O[C@]1(C)CC[C@@H](O)C(C)(C)[C@H]1C2 | 1260
* COc1cc(/C=C/c2cc(OC)c3cc[nH]c3c2)cc2c1O[C@]1(C)CC[C@@H](O)C(C)(C)[C@H]1C2 | 191
* CC1(C)[C@H](O)CC[C@@]2(C)Oc3c(O)cc(/C=C/c4cc(O)c5cc[nH]c5c4)cc3C[C@H]12 | 447
* COc1cc(/C=C/c2cc(OC)c3c(C/C=C(\C)CCC=C(C)C)c[nH]c3c2)cc2c1O[C@]1(C)CC[C@@H](O)C(C)(C)[C@H]1C2 | 562
* COc1cc(/C=C/c2cc(O)c3c(CC=C(C)C)c[nH]c3c2)cc2c1O[C@]1(C)CC[C@@H](O)C(C)(C)[C@H]1C2 | 275
* COc1cc(/C=C/c2cc(O)c3c(c2)C[C@@H]2C(C)(C)[C@H](O)CC[C@@]2(C)O3)cc2[nH]cc(CC=C(C)C)c12 | 2950

# get_value(readout='GI50', item= COc1cc(/C=C/c2cc(OC)c3ccn(C)c3c2)cc2c1O[C@]1(C)CC[C@@H](O)C(C)(C)[C@H]1C2 )
2000

Need GI50 of COc1cc(/C=C/c2cc(O)c3c(c2)C[C@@H]2C(C)(C)[C@H](O)CC[C@@]2(C)O3)cc2c1ccn2C , thanks.
295

# input compound: COc1cc(/C=C/c2cc(O)c3c(C/C=C(\C)CCC=C(C)C)c[nH]c3c2)cc2c1O[C@]1(C)CC[C@@H](O)C(C)(C)[C@H]1C2 ; wanted: its GI50
525

Given the compound COc1cc(/C=C/c2cc(O)c3cc[nH]c3c2)cc2c1O[C@]1(C)CC[C@@H](O)C(C)(C)[C@H]1C2 , what is its reported GI50?
457

* * *

- Test system: CAKI-1
- Experiment summary: Cytotoxicity against human Caki1 cells
- Type: functional
We label by threshold. Values of GI50 strictly beneath 300 nM are T. Values of 300 nM and up are F.

Reference set (3 entries):
- COc1cc(/C=C/c2cc(OC)c3c(CC=C(C)C)c[nH]c3c2)cc2c1O[C@]1(C)CC[C@@H](O)C(C)(C)[C@H]1C2: F
- COc1cc(/C=C/c2cc(O)c3cc[nH]c3c2)cc2c1O[C@]1(C)CC[C@@H](O)C(C)(C)[C@H]1C2: F
- COc1cc(/C=C/c2cc(OC)c3ccn(C)c3c2)cc2c1O[C@]1(C)CC[C@@H](O)C(C)(C)[C@H]1C2: F

Does the reported GI50 of the following molecule sit strictly below 300 nM? COc1cc(/C=C/c2cc(OC)c3c(C/C=C(\C)CCC=C(C)C)c[nH]c3c2)cc2c1O[C@]1(C)CC[C@@H](O)C(C)(C)[C@H]1C2
F

Say whether its GI50 is strictly beneath 300 nM. Entry: COc1cc(/C=C/c2cc(O)c3c(c2)C[C@@H]2C(C)(C)[C@H](O)CC[C@@]2(C)O3)cc2[nH]cc(CC=C(C)C)c12
T
